- procedureSummary: recombinant barcode read abundance after kanamycin selection (control-corrected) (log10(CPM+1)); higher = more efficient recombination; sequences stand for … in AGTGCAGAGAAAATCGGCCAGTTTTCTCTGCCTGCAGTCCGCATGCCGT…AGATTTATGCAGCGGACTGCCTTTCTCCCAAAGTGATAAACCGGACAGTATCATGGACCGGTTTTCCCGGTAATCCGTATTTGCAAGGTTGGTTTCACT; site = the 11-nt target;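 further: IS621 recombinase and bridge RNA in Escherichia coli cells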
Use Y when the recorded recombinant barcode read abundance (log10) is no lower than 0.2; use N when it is lower.

Does the reported recombinant barcode read abundance (log10) for GAGCTTACTTGGGTTCTAACCTGTTGCCT (site GAGCTTACTAG) fall at or above the 0.2 mark?
Y

Does the reported recombinant barcode read abundance (log10) for CGTGCGTCTTGGGTTCTAACCTGTTGCCT (site AGTGCGTCTAG) fall at or above the 0.2 mark?
Y

Does the reported recombinant barcode read abundance (log10) for TAACGGGCTTGGGTTCTAACCTGTTGCCG (site TAAAGGGCTAG) fall at or above the 0.2 mark?
N

Does the reported recombinant barcode read abundance (log10) for TAGACAGCTTGGGTTCTAACCTGTTGCCT (site TAGACAGCTAG) fall at or above the 0.2 mark?
Y

Does the reported recombinant barcode read abundance (log10) for CGACCCTCTTGGGTTCTAACCTGTTGCTT (site CGACCCTCTAA) fall at or above the 0.2 mark?
Y

Does the reported recombinant barcode read abundance (log10) for CACACACCTTGGGTTCTAACCTGTTGCGT (site CACAATCCTAC) fall at or above the 0.2 mark?
N

Does the reported recombinant barcode read abundance (log10) for CCTCAGGCTTGGGTTCTAACCTGTTGCCT (site CCTCAGGCTCG) fall at or above the 0.2 mark?
N

Does the reported recombinant barcode read abundance (log10) for TAGTGCTCTTGGGTTCTAACCTGTTGCCC (site TAGTGCTCTAG) fall at or above the 0.2 mark?
Y

Does the reported recombinant barcode read abundance (log10) for CTTCACCCTTGGGTTCTAACCTGTTGCCT (site CTTCAGCCTAG) fall at or above the 0.2 mark?
N

Does the reported recombinant barcode read abundance (log10) for AATGGGACTTGGGTTCTAACCTGTTGCCT (site AATGGGTCTAG) fall at or above the 0.2 mark?
N

Does the reported recombinant barcode read abundance (log10) for AGGCGCCCTTGGGTTCTAACCTGTTGCAG (site AGGCGCCCTAT) fall at or above the 0.2 mark?
N

Does the reported recombinant barcode read abundance (log10) for ACCTGAACTTGGGTTCTAACCTGTTGCCT (site ACTTGAACTAG) fall at or above the 0.2 mark?
N

Does the reported recombinant barcode read abundance (log10) for CTCGGAGCTTGGGTTCTAACCTGTTGCCT (site CTCGGAGCTAG) fall at or above the 0.2 mark?
Y

Does the reported recombinant barcode read abundance (log10) for CTGAGCCCTTGGGTTCTAACCTGTTGCCG (site CTAAGCCCTCC) fall at or above the 0.2 mark?
Y

Does the reported recombinant barcode read abundance (log10) for CACTTGCCTTGGGTTCTAACCTGTTGCCT (site CACTTGACTAG) fall at or above the 0.2 mark?
N

Does the reported recombinant barcode read abundance (log10) for AATGGGACTTGGGTTCTAACCTGTTGCCT (site AATGGGGCTAG) fall at or above the 0.2 mark?
Y

Does the reported recombinant barcode read abundance (log10) for TGTAATCCTTGGGTTCTAACCTGTTGCCT (site TGTAATGCTAG) fall at or above the 0.2 mark?
N

Does the reported recombinant barcode read abundance (log10) for TAGTCGACTTGGGTTCTAACCTGTTGCTT (site TAGCCGACTAA) fall at or above the 0.2 mark?
Y

Does the reported recombinant barcode read abundance (log10) for TCTAAGTCTTGGGTTCTAACCTGTTGCCT (site TCTAAGTCTTG) fall at or above the 0.2 mark?
Y

Does the reported recombinant barcode read abundance (log10) for GGTCGCCCTTGGGTTCTAACCTGTTGCGT (site GGTCGCCCTAC) fall at or above the 0.2 mark?
Y
